For each record, write down the corresponding Positive comeas/total.
- System: bFGF-induced corneal angiogenesis
- PROTOCOL_TEXT: Mouse corneal neovascularization assay (bFGF pellet)
- Type: in vivo
- MEASUREMENT_CONTEXT: peptide 10 μM, bFGF 50 ng/pellet, day 5 after implantation

Positive comeas/total for acetyl-SSPDIHGTYKE-amide (Ac-SSPDIHGTYKE-NH2) [PEDF residues 94-104] ?
6/6

Would you kindly share the measured Positive comeas/total for acetyl-ERTESIIHRALYYDLIS-amide (Ac-ERTESIIHRALYYDLIS-NH2) [ERT-L, PEDF residues 78-94] ?
2/6

Which Positive comeas/total value is on record for acetyl-LYYDLISSPDIHGTYKE-amide (Ac-LYYDLISSPDIHGTYKE-NH2) [PEDF residues 88-104] ?
5/6

// Positive comeas/total lookup, key: acetyl-TGALVEEEDPF-amide (Ac-TGALVEEEDPF-NH2) [PEDF residues 16-26]
4/6

Look at this substance and give its reported Positive comeas/total. acetyl-ERTESIIHRAL-amide (Ac-ERTESIIHRAL-NH2) [ERT-S, PEDF residues 78-88]
5/6
